System: HCT-15 colon
Assay: NCI-60 one-dose screen, 48 h (100 = growth as untreated, 0 = no growth, -100 = all killed)
Conditions: 10 µM unless noted
Compounds without any hit were thinned out: in the full panel of roughly 83,000, 20% have a hit.
Would you kindly list growth for each of these compounds?
Numbers only; they are read as %.

Which growth is reported for this compound? Clc1cc(Cl)cc(N2N=C(c3cccc(Nc4ccncc4)c3)CC2c2ccccc2)c1 (configuration not stated)
-71.9

Fill blank: measured growth of the compound COc1cc(C2NC(c3cc(OC)c(OC)c(OC)c3)C(C#N)(C#N)C2(C#N)C#N)cc(OC)c1OC (configuration not stated) is ____.
97.9

Any idea what its growth is? The compound is Cc1ccc(C2CC(c3cccc(Nc4ccncc4)c3)=NN2c2ccccc2)cc1 (configuration not stated)
-82.6

Form field: reported growth of CCNC(=O)c1[nH]cc(-c2ccc(OC)cc2)c1-c1cc(OC)cc(OC)c1
68.6

Look at this compound and give its reported growth. CCC(C)C(N)C(=O)NNc1n[nH]c(=S)n1N (configuration not stated)
103

If you can, please state the reported growth value of Cc1cccc(Oc2ccc(Nc3ncnc4ccc(NC(=O)CN(C)C)cc34)cc2Cl)c1 .
-40.9

Tell me the measured growth of COc1cc(C2CC(c3cccc(Nc4ccncc4)c3)=NN2c2ccccc2)cc(OC)c1OC (configuration not stated) , please.
28.2

Name the reported growth value associated with the compound O=C1Nc2c(ccc(Cl)c2Cl)/C1=C/c1ccccn1
70.9

Could you share which growth value was measured for CCOC(=O)C1CC(=O)c2cc(OC)c(OC)cc2C1 (configuration not stated) ?
100

What growth value was documented for this compound, COc1ccncc1C#Cc1cncc(C(=O)Nc2ccc(CN3CCN(C)CC3)c(C(F)(F)F)c2)c1 ?
16.9

growth for COc1ccc(/C(C)=N/NC(=O)CSc2nc3ccccc3c(=O)n2Cc2ccc(S(N)(=O)=O)cc2)c(OC)c1 ?
96.2

Find the recorded growth belonging to O=C(Nc1ccc2ncnc(Nc3ccc(Oc4cccc(F)c4)c(Cl)c3)c2c1)c1ccc(CNCCO)cc1 and report it.
22.8

Give its growth value. Item: CN1CCN(c2ccc(NC3=C(Cl)C(=O)c4ncccc4C3=O)cc2C#N)CC1
48.2

State the recorded growth for this entry: CCCC/C(=N\N=C(N)N)c1ccc(F)cc1
23.4

Fill in: growth of NC(=O)c1ncn(C2OC(CO)C(O)C2O)n1 (configuration not stated) is ___
89.3

Data request, read-out growth, for COc1ccc2c(c1)c(CC(=O)NCCOCCOCC(=O)Nc1ccc(OC)c(C(N)=O)c1O)c(C)n2C(=O)c1ccc(Cl)cc1
95.5

Requested field: growth. Item: Cc1ccc(C2CC(c3cccc(Nc4ccncc4)c3)=NN2c2ccc(Cl)cc2)cc1 (configuration not stated)
-88.2
